# Lookup of reported Fold depletion in Mef keyed by entry
Test system: immortalized murine embryonic fibroblasts (Mef)
method-summary: Pooled negative selection RNAi screening (deep sequencing)
Assay type: cell-based
condition-summary: deep sequencing reads, on dox compared to initial representation
Could you give me the number in Fold? Just the number is fine.

[[record]]
molecule = "Nmur1.7: shRNA, SEQ ID NO: 152 (nucleic acid) TGCTGTTGACAGTGAGCGCCTGCAATATCAGTGAGTTCAATAGTGAAGCCACAGATGTATTGAACTCACTGATATTGCAGATGCCTACTGCCTCGGA"
reported_property = "Fold depletion in Mef"
units_symbol = "Fold"
readout_value = 2.58

[[record]]
molecule = "Gas1.2159: shRNA, SEQ ID NO: 128 (nucleic acid) TGCTGTTGACAGTGAGCGACCCGAAATTACAACTGCATTATAGTGAAGCCACAGATGTATAATGCAGTTGTAATTTCGGGGTGCCTACTGCCTCGGA"
reported_property = "Fold depletion in Mef"
units_symbol = "Fold"
readout_value = 0.81

[[record]]
molecule = "Trp53.1224: neutral control shRNA, SEQ ID NO: 214 (nucleic acid) TGCTGTTGACAGTGAGCGCCCACTACAAGTACATGTGTAATAGTGAAGCCACAGATGTATTACACATGTACTTGTAGTGGATGCCTACTGCCTCGGA"
reported_property = "Fold depletion in Mef"
units_symbol = "Fold"
readout_value = 0.84


Please find the next molecule below.
Recorded Fold depletion in Mef (molecule Gab3.527: shRNA, SEQ ID NO: 125 (nucleic acid) TGCTGTTGACAGTGAGCGCGACGGAAACACTAATAGTGTATAGTGAAGCCACAGATGTATACACTATTAGTGTTTCCGTCATGCCTACTGCCTCGGA ): 0.46
